B1: NF2 (merlin) isoform 7, human, full length (507 aa, lacks exons 2-3 = isoform-1 residues 39-121; exon-16 C-terminus), P35240-4 (parent)
chain: MAGAIASRMSFSSLKRKQPKTFTVRIVTMDAEMEFNCEVKKQILDEKIYCPPEASVLLASYAVQAKYGDYDPSVHKRGFLAQEELLPKRVINLYQMTPEMWEERITAWYAEHRGRARDEAEMEYLKIAQDLEMYGVNYFAIRNKKGTELLLGVDALGLHIYDPENRLTPKISFPWNEIRNISYSDKEFTIKPLDKKIDVFKFNSSKLRVNKLILQLCIGNHDLFMRRRKADSLEVQQMKAQAREEKARKQMERQRLAREKQMREEAERTRDELERRLLQMKEEATMANEALMRSEETADLLAEKAQITEEEAKLLAQKAAEAEQEMQRIKATAIRTEEEKRLMEQKVLEAEVLALKMAEESERRAKEADQLKQDLQEAREAERRAKQKLLEIATKPTYPPMNPIPAPLPPDIPSFNLIGDSLSFDFKDTDMKRLSMEIEKEKVEYMEKSKHLQEQLNELKTEIEALKLKERETALDILHNENSDRGGSSKHNTIKKPQAQGRRPICI

Variants of: B1
Experimental Details: reverse yeast two-hybrid deep mutational scan (rY2H-seq): NF2 isoform 7 mutant library as bait mated with wild-type prey strains; selection on medium lacking adenine for non-interacting pairs; NextSeq paired-end sequencing; enrichment vs …
Test Conditions: with EMILIN1 (elastin microfibril interfacer 1), Q9Y6C2; yeast diploids after mating (RBait_S3 x RPrey_S3), 30 °C, selection for reporter genes on NB agar; human tyrosine kinase ABL2 co-expressed as the active kinase …; HIGHER = WEAKER BINDING (the opposite of display enrichments): higher = stronger loss of interaction: reverse Y2H selects yeast in which bait and prey do NOT interact (growth without adenine), so a …; hits-only table; scale: rY2H score; numbering: uniprot, sequence starts at 1
Measure: enrichment

Illustrative cases are given below, each with its answer.
INSERT INTO results (mutation_code, measure, reported) VALUES
  ('K211I', 'enrichment', 3.16),
  ('Y61L', 'enrichment', 5.18),
  ('K170L', 'enrichment', 4.44),
  ('R293E', 'enrichment', 2.64),
  ('A381L', 'enrichment', 1.87);

P = R341K
Q = E367K
For the pair P and Q , which member has the lower enrichment number? Identify your pick by its label.
Q
(Q: 1.96, P: 3.2)

I = T397L
II = R253K
III = N165L
IV = K313T
V = R471G
Order field: enrichment | Direction: descending (largest first) Hello, could you send the labels back in the order asked? Thank you.
II, IV, III, I, V
(II: 10.6, IV: 6, III: 3.7, I: 2.34, V: 1.53)

a = L342A
b = K318L
For the pair a and b , which member has the lower enrichment number? Identify your pick by its label.
b
